Target: HCV NS5BΔ21/Gal4-DBD fusion protein (Hepatitis C virus genotype 1b, UniProt Q9WMX2)
Construct: The protein was expressed with a 21 amino acid C-terminal deletion to remove transmembrane domain
Test: 3D-SCREEN assay (NS5B reporter gene assay in Huh-7 cells)
Reported pEC50 values follow for various compounds
// pEC50 is dimensionless: -log10 of concentration (M)

compound="COc1ccc(C(=O)C2=C(O)C(=O)N(c3nnc(C(C)C)s3)C2c2ccc(C(C)(C)C)cc2)cc1 (stereo not shown) [Example 35]" experimentalresult=5.40

Query compound follows.
Tell us which pEC50 value is on record for CC(C)c1ccc(C2C(C(=O)c3ccc(OC(F)(F)F)cc3)=C(O)C(=O)N2c2ncc(S(=O)(=O)c3ccc([N+](=O)[O-])cc3)s2)cc1 (stereo not shown) [Example 13]
5.70

====

quantityMeasured: melting point (°C)
The figure you give is taken to be in °C; do not add the unit.

compound="COc1ccc(C(=O)C2=C(O)C(=O)N(c3nnc(C)s3)C2c2ccc(C(=O)O)cc2)cc1 (stereo not shown)" experimentalresult=281
compound="COC(=O)c1cccc(C2C(C(=O)c3ccc(OC)cc3)=C(O)C(=O)N2c2nnc(C)s2)c1 (stereo not shown)" experimentalresult=218
compound="Cc1nnc(N2C(=O)C(O)=C(C(=O)c3ccc(C(C)C)cc3)C2c2ccc(C(F)(F)F)cc2)s1 (stereo not shown)" experimentalresult=257

Identify measured melting point associated with Cc1ccc(C(=O)C2=C(O)C(=O)N(c3ncc(S(=O)(=O)c4ccc([N+](=O)[O-])cc4)s3)C2c2cccnc2)cc1 (stereo not shown)
211

Retrieve melting point measured for COc1ccc(C(=O)C2=C(O)C(=O)N(c3nnc(C(F)(F)F)s3)C2c2ccc(C(C)(C)C)cc2)cc1 (stereo not shown) and print it.
271

Query melting point for CON=C(C1=C(O)C(=O)N(c2ncc(S(=O)(=O)c3ccc([N+](=O)[O-])cc3)s2)C1c1ccc(C(C)C)cc1)c1ccc(C)cc1 (mixture of isomers)
156

====

In this section, each of the compounds is paired with its reported melting point.
The reply should be a number in °C, with the unit left off.

compound="COc1ccc(C(=O)C2=C(O)C(=O)N(c3nnc(C)s3)C2c2ccc(C#N)cc2)cc1 (stereo not shown)" experimentalresult=185

Next compound, please.
Give me measured melting point, please, for this compound: COC1=C(C(=O)c2ccc(C)cc2)C(c2ccc(C(C)C)cc2)N(c2ncc(S(=O)(=O)c3ccc([N+](=O)[O-])cc3)s2)C1=O (stereo not shown)
237

====

Structures can show the parent of a compound that is named as a salt.
quantityMeasured: melting point (°C)
State the answer as a number, implicitly in °C.

compound="CC(C)(C)c1ccc(C2C(C(=O)CCc3ccccc3)=C(O)C(=O)N2c2ncc(S(=O)(=O)c3ccc([N+](=O)[O-])cc3)s2)cc1 (stereo not shown)" experimentalresult=172

Give a short answer stating reported melting point for CNC(=O)c1cccc(C2C(C(=O)c3ccc(OC)cc3)=C(O)C(=O)N2c2nnc(C)s2)c1 (stereo not shown) (as salt: hydrochloride) .
238

====

Molecular target: HCV NS5BΔ21/Gal4-DBD fusion protein (Hepatitis C virus genotype 1b, UniProt Q9WMX2)
Construct: The protein was expressed with a 21 amino acid C-terminal deletion to remove transmembrane domain
Assay: 3D-SCREEN assay (NS5B reporter gene assay in Huh-7 cells)
quantityMeasured: pEC50
# pEC50: negative log10 of molar concentration; output just the value

compound="COC(=O)c1ccc(C2C(C(=O)c3ccc(C)cc3)=C(O)C(=O)N2c2ncc(S(=O)(=O)c3ccc([N+](=O)[O-])cc3)s2)cc1 (centres unmarked) [Example 4]" quantitymeasured=pEC50 experimentalresult=5.00
compound="COc1ccc(C(=O)C2=C(O)C(=O)N(c3nncs3)C2c2ccc(C(C)(C)C)cc2)cc1 (centres unmarked) [Example 18]" quantitymeasured=pEC50 experimentalresult=5.15
compound="COc1ccc(C2C(C(=O)c3ccc(C)cc3)=C(O)C(=O)N2c2ncc(S(=O)(=O)c3ccc([N+](=O)[O-])cc3)s2)cc1 (centres unmarked) [Example 53]" quantitymeasured=pEC50 experimentalresult=5.22
compound="COc1ccc(C(=O)C2=C(O)C(=O)N(c3nnc(C(F)(F)F)s3)C2c2ccc(C(C)(C)C)cc2)cc1 (centres unmarked) [Example 26]" quantitymeasured=pEC50 experimentalresult=4.85
compound="COc1ccc(C(=O)C2=C(O)C(=O)N(c3nnc(C)s3)C2c2ccc(OC(F)(F)F)cc2)cc1 (centres unmarked) [Example 20]" quantitymeasured=pEC50 experimentalresult=5.40

Read off the recorded pEC50 for Cc1ccc(C(=O)C2=C(O)C(=O)N(c3ncc(S(=O)(=O)c4ccc([N+](=O)[O-])cc4)s3)C2c2ccc(Cl)cc2)cc1 (centres unmarked) [Example 60]
4.89

Determine from records and report pEC50 for COc1ccc(C(=O)C2=C(O)C(=O)N(c3nnc(-c4ccccc4)s3)C2c2ccc(C(C)(C)C)cc2)cc1 (centres unmarked) [Example 30]
5.22
